Value source: patent US6995185B2

assay: log P determination by HPLC on reversed-phase column (C 18), EEC directive 79/831 Annex V.A8; assay type: physicochemical; details: reversed-phase HPLC column (C 18), pH 2.3, pH 2.3 (marked a), 0.1% aqueous phosphoric acid/acetonitrile, 43° C.
Binary classification by chromatographic logP, with 4 as an inclusive lower bound for Condition met; all other cases are Condition not met.

Ask: Quick check: does O=C(OCc1cccc(Cl)c1)[C@H]1CC(c2c(F)cccc2F)=NC1c1ccc(-c2ccc(OC(F)(F)F)cc2)cc1 (stereo partly shown) [Example 36] have chromatographic logP greater than or equal to 4?
Reply: Condition met

Ask: Quick check: does O=C(Nc1nccs1)[C@H]1CC(c2c(F)cccc2F)=NC1c1ccc(-c2ccc(OC(F)(F)F)cc2)cc1 (stereo partly shown) [Example 87] have chromatographic logP greater than or equal to 4?
Reply: Condition not met

Ask: Quick check: does Cc1cc(C)cc(CNC(=O)[C@H]2CC(c3c(F)cccc3F)=NC2c2ccc(-c3ccc(OC(F)(F)F)cc3)cc2)c1 (stereo partly shown) [Example 96] have chromatographic logP greater than or equal to 4?
Reply: Condition met

Ask: Quick check: does O=C(OCC1CCCCC1)[C@H]1CC(c2c(F)cccc2F)=NC1c1ccc(-c2ccc(OC(F)(F)F)cc2)cc1 (stereo partly shown) [Example 41] have chromatographic logP greater than or equal to 4?
Reply: Condition met

Ask: Quick check: does O=C(NC1CCCCC1)[C@H]1CC(c2c(F)cccc2F)=NC1c1ccc(-c2ccc(OC(F)(F)F)cc2)cc1 (stereo partly shown) [Example 66] have chromatographic logP greater than or equal to 4?
Reply: Condition met

Ask: Quick check: does O=C([C@H]1CC(c2c(F)cccc2F)=NC1c1ccc(-c2ccc(OC(F)(F)F)cc2)cc1)N1CCCC1 (stereo partly shown) [Example 76] have chromatographic logP greater than or equal to 4?
Reply: Condition not met

Ask: Quick check: does CCOC(=O)[C@H]1CC(c2c(F)cccc2F)=NC1c1ccc(-c2ccc(OC(F)(F)F)cc2)cc1 (stereo partly shown) [Example 10] have chromatographic logP greater than or equal to 4?
Reply: Condition met

Ask: Quick check: does O=C(NCc1ccc(F)cc1F)[C@H]1CC(c2c(F)cccc2F)=NC1c1ccc(-c2ccc(OC(F)(F)F)cc2)cc1 (stereo partly shown) [Example 97] have chromatographic logP greater than or equal to 4?
Reply: Condition met

Ask: Quick check: does O=C(OCCOc1ccccc1)[C@H]1CC(c2c(F)cccc2F)=NC1c1ccc(-c2ccc(OC(F)(F)F)cc2)cc1 (stereo partly shown) [Example 42] have chromatographic logP greater than or equal to 4?
Reply: Condition met

Ask: Quick check: does CCCCN(C)C(=O)[C@H]1CC(c2c(F)cccc2F)=NC1c1ccc(-c2ccc(OC(F)(F)F)cc2)cc1 (stereo partly shown) [Example 70] have chromatographic logP greater than or equal to 4?
Reply: Condition met
